System: A549
assayProcedure: Cytotoxicity against human A549 cells assessed as reduction in cell viability after 48 hrs by MTT assay
Type: functional, cell-based
settings: A549, 48 h

{"chemicalString": "COc1cc2c(c(O)c1Cl)C(=O)c1c(O)cc(C[C@H](C)O)cc1[C@H]2[C@H]1c2cc(C[C@H](C)O)cc(O)c2C(=O)c2c1cc(OC)c(Cl)c2O", "IC50": "> 20 µM"}
{"chemicalString": "COc1cc2c(c(O)c1Cl)C(=O)c1c(O)cc(C[C@H](C)O)cc1[C@@H]2[C@H]1c2cc(C[C@H](C)O)cc(O)c2C(=O)c2c1cc(OC)c(Cl)c2O", "IC50": "> 20 µM"}
{"chemicalString": "COc1cc2c(c(O)c1Cl)C(=O)c1c(O)cc(C[C@H](C)O)cc1[C@H]2[C@@H]1c2cc(C[C@H](C)O)cc(O)c2C(=O)c2c1cc(OC)c(Cl)c2O", "IC50": "> 20 µM"}
